- EXPERIMENT_NOTES: Biodistribution experiments in normal mice after i.v. injection
- Type: in vivo
- MEASUREMENT_CONDITIONS: male, ddY, mouse, in vivo, iv, total radioactivity, mice, i.v., 180 min after injection, mean (SD); read-out: Biodistribution of radioactivity, Spleen
Where a SMILES comes first, the peptide text is derived from it. [ ]: non-standard residue; d: D form. The star is where a group is joined. DOTA = O=C(O)CN1CCN(CC(=O)O)CCN(CC(=O)*)CCN(CC(=O)O)CC1
ATTRIBUTE_MEASURED: tissue uptake dose at 3 h (%ID)
Answer format: numeric, %ID implied, no suffix.

Input: Would you kindly share the measured tissue uptake dose at 3 h for O=C(O)C[C@@H](NC(=O)[C@@H](CC(=O)O)NC(=O)[C@@H](CC(=O)O)NC(=O)[C@@H](CC(=O)O)NC(=O)[C@@H](CC(=O)O)NC(=O)[C@@H](CC(=O)O)NC(=O)[C@@H](CC(=O)O)NC(=O)[C@@H](CC(=O)O)NC(=O)[C@@H](CC(=O)O)NC(=O)[C@@H](CC(=O)O)NC(=O)[C@@H](CC(=O)O)NC(=O)CN1CCN(CC(=O)O)CCN(CC(=O)O)CCN(CC(=O)O)CC1)C(=O)O [^67Ga-DOTA-(D-Asp)11, metal not drawn] ({DOTA}-[dD][dD][dD][dD][dD][dD][dD][dD][dD][dD][dD]-OH) ?
Output: 0.1

###

- EXPERIMENT_NOTES: Biodistribution experiments in normal mice after i.v. injection
- Type: in vivo
- MEASUREMENT_CONDITIONS: male, ddY, mouse, in vivo, iv, total radioactivity, Biodistribution of radioactivity, Blood
Where a SMILES comes first, the peptide text is derived from it. [ ]: non-standard residue; d: D form. The star is where a group is joined. DOTA = O=C(O)CN1CCN(CC(=O)O)CCN(CC(=O)*)CCN(CC(=O)O)CC1
The molecules listed here are annotated with their tissue uptake dose at 1 h.
Write the answer as a number in %ID, unit excluded.

Worked examples, 2 molecules total:
MOLECULE	RESULT_UNIT	NUMERIC_RESULT
O=C(O)C[C@@H](NC(=O)[C@@H](CC(=O)O)NC(=O)[C@@H](CC(=O)O)NC(=O)[C@@H](CC(=O)O)NC(=O)[C@@H](CC(=O)O)NC(=O)CN1CCN(CC(=O)O)CCN(CC(=O)O)CCN(CC(=O)O)CC1)C(=O)O [^67Ga-DOTA-(D-Asp)5, metal not drawn] ({DOTA}-[dD][dD][dD][dD][dD]-OH)	%ID	0.27
O=C(O)C[C@@H](NC(=O)[C@@H](CC(=O)O)NC(=O)CN1CCN(CC(=O)O)CCN(CC(=O)O)CCN(CC(=O)O)CC1)C(=O)O [^67Ga-DOTA-(D-Asp)2, metal not drawn] ({DOTA}-[dD]-[dD]-OH)	%ID	0.24

// moving on: another record for tissue uptake dose at 1 h
Input: Request the reported tissue uptake dose at 1 h associated with O=C(O)CC[C@@H](NC(=O)[C@@H](CCC(=O)O)NC(=O)[C@@H](CCC(=O)O)NC(=O)[C@@H](CCC(=O)O)NC(=O)[C@@H](CCC(=O)O)NC(=O)[C@@H](CCC(=O)O)NC(=O)[C@@H](CCC(=O)O)NC(=O)[C@@H](CCC(=O)O)NC(=O)[C@@H](CCC(=O)O)NC(=O)[C@@H](CCC(=O)O)NC(=O)[C@@H](CCC(=O)O)NC(=O)[C@@H](CCC(=O)O)NC(=O)[C@@H](CCC(=O)O)NC(=O)[C@@H](CCC(=O)O)NC(=O)CN1CCN(CC(=O)O)CCN(CC(=O)O)CCN(CC(=O)O)CC1)C(=O)O [^67Ga-DOTA-(D-Glu)14, metal not drawn]
Output: 0.1

###

- EXPERIMENT_NOTES: Biodistribution experiments in normal mice after i.v. injection
- Assay type: in vivo
- MEASUREMENT_CONDITIONS: male, ddY, mouse, in vivo, iv, total radioactivity, Biodistribution of radioactivity, Bone (Femur)
- Procedure: Experiments with animals were conducted in strict accordance with the Guidelines for the Care and Use of Laboratory Animals of Kanazawa University. […] Complete left femurs were isolated as representative bone samples, radioactivity was determined using gamma counters (AccuFLEX γ ARC-8001 in the case of ^18F, Hitachi, Ltd.), and background counts and physical decay were corrected during counting.
ATTRIBUTE_MEASURED: tissue uptake dose at 10 min (%ID)
Give just the numeric value; %ID need not be written.

Input: # tissue uptake dose at 10 min lookup, item O=C(O)CC[C@H](NC(=O)[C@H](CCC(=O)O)NC(=O)[C@H](CCC(=O)O)NC(=O)[C@H](CCC(=O)O)NC(=O)[C@H](CCC(=O)O)NC(=O)[C@H](CCC(=O)O)NC(=O)[C@H](CCC(=O)O)NC(=O)[C@H](CCC(=O)O)NC(=O)[C@H](CCC(=O)O)NC(=O)[C@H](CCC(=O)O)NC(=O)[C@H](CCC(=O)O)NC(=O)[C@H](CCC(=O)O)NC(=O)[C@H](CCC(=O)O)NC(=O)[C@H](CCC(=O)O)NC(=O)CN1CCN(CC(=O)O)CCN(CC(=O)O)CCN(CC(=O)O)CC1)C(=O)O [^67Ga-DOTA-(L-Glu)14, metal not drawn]
Output: 9.81

###

- EXPERIMENT_NOTES: Biodistribution experiments in normal mice after i.v. injection
- Assay type: in vivo
- MEASUREMENT_CONDITIONS: male, ddY, mouse, in vivo, iv, total radioactivity, mice, i.v., 10 min after injection, mean (SD); read-out: Biodistribution of radioactivity, Liver
Where a SMILES comes first, the peptide text is derived from it. [ ]: non-standard residue; d: D form. The star is where a group is joined. DOTA = O=C(O)CN1CCN(CC(=O)O)CCN(CC(=O)*)CCN(CC(=O)O)CC1
ATTRIBUTE_MEASURED: tissue uptake dose at 10 min

Input: Param item = O=C(O)C[C@@H](NC(=O)[C@@H](CC(=O)O)NC(=O)[C@@H](CC(=O)O)NC(=O)[C@@H](CC(=O)O)NC(=O)[C@@H](CC(=O)O)NC(=O)[C@@H](CC(=O)O)NC(=O)[C@@H](CC(=O)O)NC(=O)[C@@H](CC(=O)O)NC(=O)[C@@H](CC(=O)O)NC(=O)[C@@H](CC(=O)O)NC(=O)[C@@H](CC(=O)O)NC(=O)CN1CCN(CC(=O)O)CCN(CC(=O)O)CCN(CC(=O)O)CC1)C(=O)O [^67Ga-DOTA-(D-Asp)11, metal not drawn] ({DOTA}-[dD][dD][dD][dD][dD][dD][dD][dD][dD][dD][dD]-OH) ; retrieve measured tissue uptake dose at 10 min.
Output: 0.51 %ID

###

- EXPERIMENT_NOTES: Biodistribution experiments in normal mice after i.v. injection
- Assay type: in vivo
- MEASUREMENT_CONDITIONS: male, ddY, mouse, in vivo, iv, total radioactivity, mice, i.v., 60 min after injection, mean (SD); read-out: Biodistribution of radioactivity, Lung
Where a SMILES comes first, the peptide text is derived from it. [ ]: non-standard residue; d: D form. The star is where a group is joined. DOTA = O=C(O)CN1CCN(CC(=O)O)CCN(CC(=O)*)CCN(CC(=O)O)CC1
ATTRIBUTE_MEASURED: tissue uptake dose at 1 h
In your response, put the unit directly after the numeric value.

Input: I'd like to know its tissue uptake dose at 1 h. The molecule in question is O=C(O)C[C@@H](NC(=O)[C@@H](CC(=O)O)NC(=O)[C@@H](CC(=O)O)NC(=O)[C@@H](CC(=O)O)NC(=O)[C@@H](CC(=O)O)NC(=O)[C@@H](CC(=O)O)NC(=O)[C@@H](CC(=O)O)NC(=O)[C@@H](CC(=O)O)NC(=O)[C@@H](CC(=O)O)NC(=O)[C@@H](CC(=O)O)NC(=O)[C@@H](CC(=O)O)NC(=O)CN1CCN(CC(=O)O)CCN(CC(=O)O)CCN(CC(=O)O)CC1)C(=O)O [^67Ga-DOTA-(D-Asp)11, metal not drawn] ({DOTA}-[dD][dD][dD][dD][dD][dD][dD][dD][dD][dD][dD]-OH)
Output: 0.08 %ID

###

- EXPERIMENT_NOTES: Biodistribution experiments in normal mice after i.v. injection
- Format: in vivo
- MEASUREMENT_CONDITIONS: male, ddY, mouse, in vivo, iv, total radioactivity, Biodistribution of radioactivity, Large-intestine
Where a SMILES comes first, the peptide text is derived from it. [ ]: non-standard residue; d: D form. The star is where a group is joined. DOTA = O=C(O)CN1CCN(CC(=O)O)CCN(CC(=O)*)CCN(CC(=O)O)CC1
# tissue uptake dose at 10 min annotations
Numbers only here, please. The scale is %ID.

MOLECULE	RESULT_UNIT	tissue uptake dose at 10 min
O=C(O)CC[C@@H](NC(=O)[C@@H](CCC(=O)O)NC(=O)[C@@H](CCC(=O)O)NC(=O)[C@@H](CCC(=O)O)NC(=O)[C@@H](CCC(=O)O)NC(=O)[C@@H](CCC(=O)O)NC(=O)[C@@H](CCC(=O)O)NC(=O)[C@@H](CCC(=O)O)NC(=O)[C@@H](CCC(=O)O)NC(=O)[C@@H](CCC(=O)O)NC(=O)[C@@H](CCC(=O)O)NC(=O)[C@@H](CCC(=O)O)NC(=O)[C@@H](CCC(=O)O)NC(=O)[C@@H](CCC(=O)O)NC(=O)CN1CCN(CC(=O)O)CCN(CC(=O)O)CCN(CC(=O)O)CC1)C(=O)O [^67Ga-DOTA-(D-Glu)14, metal not drawn]	%ID	0.42
O=C(O)C[C@@H](NC(=O)[C@@H](CC(=O)O)NC(=O)[C@@H](CC(=O)O)NC(=O)[C@@H](CC(=O)O)NC(=O)[C@@H](CC(=O)O)NC(=O)CN1CCN(CC(=O)O)CCN(CC(=O)O)CCN(CC(=O)O)CC1)C(=O)O [^67Ga-DOTA-(D-Asp)5, metal not drawn] ({DOTA}-[dD][dD][dD][dD][dD]-OH)	%ID	0.47

Here is the next item to consider.
Input: I am curious: what tissue uptake dose at 10 min value has been reported for O=C(O)C[C@@H](NC(=O)[C@@H](CC(=O)O)NC(=O)[C@@H](CC(=O)O)NC(=O)[C@@H](CC(=O)O)NC(=O)[C@@H](CC(=O)O)NC(=O)[C@@H](CC(=O)O)NC(=O)[C@@H](CC(=O)O)NC(=O)[C@@H](CC(=O)O)NC(=O)CN1CCN(CC(=O)O)CCN(CC(=O)O)CCN(CC(=O)O)CC1)C(=O)O [^67Ga-DOTA-(D-Asp)8, metal not drawn] ({DOTA}-[dD][dD][dD][dD][dD][dD][dD][dD]-OH) ?
Output: 0.26
